Molecular target: HIV-1 Env of pseudovirus Du172.17 (HIV-1)
Experiment: cell-based or functional assay
measurement_type: neutralization IC50 (µg/mL)

1. MS-70 (antibody, V domains shown) VH: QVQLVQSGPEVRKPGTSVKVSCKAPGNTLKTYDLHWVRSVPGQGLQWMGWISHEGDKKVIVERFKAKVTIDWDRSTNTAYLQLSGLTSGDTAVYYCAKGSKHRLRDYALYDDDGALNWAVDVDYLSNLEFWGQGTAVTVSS VL: DFVLTQSPHSLSVTPGESASISCKSSHSLIHGDRNNYLAWYVQKPGQSPQLLIYLASSRASGVPDRFSGSGSDKDFTLKISRVETEDVGTYYCMQGRESPWTFGQGTKVDIKR    1.49
2. MS-82 (antibody, V domains shown) VH: QVQLVQSGPEVRKPGTSVKVSCKAPGNTLKTYDLHWVRSVPGQGLQWMGWISHEGDKKVIVERFKAKVTIDWDRSTNTAYLQLSGLRSGDTAVYYCAKGSKHRLRDYALYDDDGALNWAVDVDYLSNLEFWGQGTAVTVSS VL: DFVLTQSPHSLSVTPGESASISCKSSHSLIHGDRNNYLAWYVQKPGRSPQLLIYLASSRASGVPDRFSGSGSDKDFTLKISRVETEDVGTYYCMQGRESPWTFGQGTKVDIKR    1.88
3. MS-80 (antibody, V domains shown) VH: QVQLVQSGPEVRKPGTSVKVSCKAPGNTLKTYDLHWVRSVPGQGLQWMGWISHEGDKKVIVERFKAKVTIDRDRSTNTAYLQLSGLTSGDTAVYYCAKGSKHRLRDYALYDDDGALNWAVDVDYLSNLEFWGQGTAVTVSS VL: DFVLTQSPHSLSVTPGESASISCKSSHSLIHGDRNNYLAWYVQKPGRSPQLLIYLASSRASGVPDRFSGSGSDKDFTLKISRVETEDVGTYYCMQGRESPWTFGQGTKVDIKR    15.2

Cited source for all entries: patent US20220025021A1
